Assay: Displacement of (+)-[5-methyl-3H][…] from L type calcium channel in guinea pig heart ventricles
Set-up: species or system Cavia porcellus
measured_parameter: Log Ki
The response must contain the number and no unit.

Solved entries (count: 3):
So, "COC(=O)C1=C(C)NC(C)=C(C(=O)OC)C1c1c(-c2ccccc2OC(F)(F)F)nc2sccn12" ? Its Log Ki was -6.8

So, "COC(=O)C1=C(C)NC(C)=C(C(=O)OC)C1c1c(C(F)(F)F)nc2sccn12" ? Its Log Ki was -5.35

So, "COC(=O)C1=C(C)NC(C)=C(C(=O)OC)C1c1c(-c2cc(OC)cc(OC)c2)nc2sccn12" ? Its Log Ki was -6.51

Next:
So, "COC(=O)C1=C(C)NC(C)=C(C(=O)OC)C1c1ccccc1[N+](=O)[O-]" ? Its Log Ki was -8.83

---

Species: Cavia porcellus
Experiment: Activity at L type calcium channel in K+ depolarized guinea pig aortic strip assessed as inhibition of calcium induced contraction at 100 uM
Type: tissue-based
Design: scale not given: the % may be the effect or the level left
Details: Aorta
Class (required): determined from Activity; valid ranges are low band = under 20%, middle band = from 20% up to 30%, high band = 30% and over

Please classify: "COC(=O)C1=C(C)NC(C)=C(C(=O)OC)C1c1c(-c2ccccc2OC(F)(F)F)nc2sccn12"
high band

Please classify: "COC(=O)C1=C(C)NC(C)=C(C(=O)OC)C1c1c(-c2ccccc2)nc2sc(C)c(C)n12"
low band

Please classify: "COC(=O)C1=C(C)NC(C)=C(C(=O)OC)C1c1c(C)nc2sc(C)cn12"
high band

Please classify: "COC(=O)C1=C(C)NC(C)=C(C(=O)OC)C1c1c(-c2ccccc2OC)nc2sccn12"
middle band

---

Organism: Cavia porcellus
Assay: Chronotropic activity at L type calcium channel in guinea pig right atrium assessed as decrease in spontaneous beating
Format: tissue-based
Settings: Cardiac atrium
Examples of compounds with documented EC30 follow.
Give just the numeric value; nM need not be written.

Solved entries (count: 7):
So, "COC(=O)C1=C(C)NC(C)=C(C(=O)OC)C1c1c(-c2ccccc2)nc2sc(Cl)cn12" ? Its EC30 was 2140

So, "COC(=O)C1=C(C)NC(C)=C(C(=O)OC)C1c1c(-c2cc(OC)c([N+](=O)[O-])cc2OC)nc2sc(Cl)cn12" ? Its EC30 was 310

So, "COC(=O)C1=C(C)NC(C)=C(C(=O)OC)C1c1c(-c2cccc(C(F)(F)F)c2)nc2sccn12" ? Its EC30 was 1900

So, "COC(=O)C1=C(C)NC(C)=C(C(=O)OC)C1c1c(-c2c(OC)ccc(OC)c2[N+](=O)[O-])nc2sc(Cl)cn12" ? Its EC30 was 11200

So, "COC(=O)C1=C(C)NC(C)=C(C(=O)OC)C1c1c(-c2ccccc2)nc2scc(C)n12" ? Its EC30 was 640

So, "COC(=O)C1=C(C)NC(C)=C(C(=O)OC)C1c1c(-c2cc(OC)cc(OC)c2)nc2sccn12" ? Its EC30 was 860

So, "COC(=O)C1=C(C)NC(C)=C(C(=O)OC)C1c1c(-c2ccc(OC)c(OC)c2)nc2sccn12" ? Its EC30 was 1440

Next:
So, "COC(=O)C1=C(C)NC(C)=C(C(=O)OC)C1c1c(-c2cc(OC)ccc2OC)nc2sc(Cl)cn12" ? Its EC30 was 360

---

Species: Cavia porcellus
Assay: Chronotropic activity at L type calcium channel in guinea pig right atrium assessed as decrease in spontaneous beating at 10 uM relative to control
Format: tissue-based
Set-up: scale not given: the % may be the effect or the level left
Details: Cardiac atrium
measured_parameter: Activity (%)
Give just the numeric value; % need not be written.

So, "COC(=O)C1=C(C)NC(C)=C(C(=O)OC)C1c1c(C)nc2sc(Cl)cn12" ? Its Activity was 30

So, "COC(=O)C1=C(C)NC(C)=C(C(=O)OC)C1c1c(-c2ccccc2C(F)(F)F)nc2sccn12" ? Its Activity was 25

So, "COC(=O)C1=C(C)NC(C)=C(C(=O)OC)C1c1c(-c2ccccc2OC(F)(F)F)nc2sccn12" ? Its Activity was 47

So, "COC(=O)C1=C(C)NC(C)=C(C(=O)OC)C1c1c(Cl)nc2sc(C)cn12" ? Its Activity was 22

---

Species on record: Cavia porcellus
Assay: Chronotropic activity at L type calcium channel in guinea pig right atrium assessed as decrease in spontaneous beating
Type: tissue-based
Details: Cardiac atrium
# binarize EC30: threshold 4 µM inclusive, high side YES, low side NO

// below: answered compounds
Quick check: does "CCc1cn2c(C3C(C(=O)OC)=C(C)NC(C)=C3C(=O)OC)c(-c3cc(OC)ccc3OC)nc2s1" have EC30 greater than or equal to 4 µM?
NO

Quick check: does "COC(=O)C1=C(C)NC(C)=C(C(=O)OC)C1c1c(C(F)(F)F)nc2sccn12" have EC30 greater than or equal to 4 µM?
NO

Quick check: does "COC(=O)C1=C(C)NC(C)=C(C(=O)OC)C1c1c(-c2cccc(OC)c2)nc2sccn12" have EC30 greater than or equal to 4 µM?
NO

Quick check: does "COC(=O)C1=C(C)NC(C)=C(C(=O)OC)C1c1c(-c2cc(OC)c([N+](=O)[O-])cc2OC)nc2sc(C)cn12" have EC30 greater than or equal to 4 µM?
NO

Quick check: does "COC(=O)C1=C(C)NC(C)=C(C(=O)OC)C1c1ccccc1[N+](=O)[O-]" have EC30 greater than or equal to 4 µM?
NO

Quick check: does "COC(=O)C1=C(C)NC(C)=C(C(=O)OC)C1c1c(-c2cc(OC)c(OC)cc2[N+](=O)[O-])nc2sccn12" have EC30 greater than or equal to 4 µM?
YES

Lab note: next compound to report on.
Quick check: does "COC(=O)C1=C(C)NC(C)=C(C(=O)OC)C1c1c(-c2ccc(OC)cc2OC)nc2sccn12" have EC30 greater than or equal to 4 µM?
YES

---

Examples of compounds with documented EC30 follow.
Species on record: Cavia porcellus
Assay: Chronotropic activity at L type calcium channel in guinea pig right atrium assessed as decrease in spontaneous beating
Format: tissue-based
Settings: Cardiac atrium
Give just the numeric value; nM need not be written.

Solved entries (count: 3):
So, "COC(=O)C1=C(C)NC(C)=C(C(=O)OC)C1c1c(-c2ccccc2OC)nc2sccn12" ? Its EC30 was 1990

So, "COC(=O)C1=C(C)NC(C)=C(C(=O)OC)C1c1c(-c2cccc(OC(F)(F)F)c2)nc2sccn12" ? Its EC30 was 1180

So, "COC(=O)C1=C(C)NC(C)=C(C(=O)OC)C1c1c(-c2ccccc2)nc2sc(C)c(C)n12" ? Its EC30 was 330

Next:
So, "COC(=O)C1=C(C)NC(C)=C(C(=O)OC)C1c1c(-c2cc(OC)ccc2OC)nc2sc(C)cn12" ? Its EC30 was 1360

---

Organism: Cavia porcellus
Test: Chronotropic activity at L type calcium channel in guinea pig right atrium assessed as decrease in spontaneous beating at 10 uM relative to control
Format: tissue-based
Parameters: scale not given: the % may be the effect or the level left
Conditions: Cardiac atrium
measured_parameter: Activity (%)
Give just the numeric value; % need not be written.

Solved entries (count: 4):
So, "COC(=O)C1=C(C)NC(C)=C(C(=O)OC)C1c1c(-c2ccc(OC)cc2OC)nc2sccn12" ? Its Activity was 55

So, "COC(=O)C1=C(C)NC(C)=C(C(=O)OC)C1c1c(-c2ccccc2)nc2sc(Cl)cn12" ? Its Activity was 87

So, "COC(=O)C1=C(C)NC(C)=C(C(=O)OC)C1c1c(Cl)nc2sc(Cl)cn12" ? Its Activity was 37

So, "COC(=O)C1=C(C)NC(C)=C(C(=O)OC)C1c1c(-c2cc(OC)ccc2OC)nc2sccn12" ? Its Activity was 31

Next:
So, "COC(=O)C1=C(C)NC(C)=C(C(=O)OC)C1c1c(-c2cc(OC)ccc2OC)nc2sc(C)cn12" ? Its Activity was 58

---

Organism: Cavia porcellus
Assay: Activity at L type calcium channel in K+ depolarized guinea pig aortic strip assessed as inhibition of calcium induced contraction at 100 uM
Format: tissue-based
Parameters: scale not given: the % may be the effect or the level left
Settings: Aorta
Field: label. Allowed values: T (Activity < 30%) or F (Activity >= 30%).

Would you kindly verify if Activity of "COC(=O)C1=C(C)NC(C)=C(C(=O)OC)C1c1c(-c2cc(OC)c([N+](=O)[O-])cc2OC)nc2sc(C)cn12" is strictly less than 30%?
F

Next:
Would you kindly verify if Activity of "COC(=O)C1=C(C)NC(C)=C(C(=O)OC)C1c1c(-c2cc(OC)ccc2OC)nc2sc(Cl)cn12" is strictly less than 30%?
T

Would you kindly verify if Activity of "COC(=O)C1=C(C)NC(C)=C(C(=O)OC)C1c1c(-c2c(OC)ccc(OC)c2[N+](=O)[O-])nc2sccn12" is strictly less than 30%?
T
